- Measured on: BRD4 (Homo sapiens)
- Test summary: Differential Scanning Fluorimetry (DSF), stability of BRD4 upon ligand binding
- Stated conditions: 100 μM protein, 4 μM compound and 2% DMSO
- Method: DSF=Differential Scanning Fluorimetry; provides a measure of the increased stability of BRD4 upon ligand binding The DSF experiment was run at 100 μM protein, 4 μM compound and 2% DMSO.
Endpoint: ΔTm at 4 µM (°C)
Please reply with the bare figure in °C and do not write the unit itself.

Quick check: ΔTm at 4 µM of `Cc1cnc(Nc2ccc(N3CCN(C)CC3)cc2)nc1Nc1cccc(NS(=O)(=O)c2ccccc2)c1` ?
4.1

Same thing, different compound: `Cc1cnc(Nc2ccc(N3CCN(C)CC3)cc2)nc1Nc1ccc2c(c1)N(S(=O)(=O)C(C)(C)C)CC2`
9.97

Now consider `CCc1cnc(Nc2ccc(N3CCN(C)CC3)cc2)nc1Nc1cccc(S(=O)(=O)NC(C)C)c1` and answer again.
2.2

Also `Cc1ccc(Nc2nc(Nc3ccc(C4CCN(C)CC4)cc3)ncc2C)cc1S(=O)(=O)NC1CCC1` , if possible.
7.7

Same question for `CN1CCN(c2ccc(Nc3ncc(F)c(Nc4cccc(NS(=O)(=O)C(C)(C)C)c4)n3)cc2)CC1` please.
5.2

Then what about the compound `Cc1cnc(Nc2ccc(N3CCN(C)CC3)cc2)nc1Nc1ccc2c(c1)N(S(=O)(=O)C(C)(C)C)CCC2` ?
8.72

Do the same for `Cc1ccc(Nc2nc(Nc3ccc(N4CCN(C)CC4)c(F)c3)ncc2C)cc1S(=O)(=O)NC1CCC1` please
6.8

Repeat with `CN1CCC(NC(=O)c2ccc(Nc3ncc(F)c(Nc4ccc(Cl)c(NS(=O)(=O)C(C)(C)C)c4)n3)cc2F)CC1`
9.91

---

- Measured on: BRD3 (Homo sapiens)
- Sequence (Q15059 whole entry): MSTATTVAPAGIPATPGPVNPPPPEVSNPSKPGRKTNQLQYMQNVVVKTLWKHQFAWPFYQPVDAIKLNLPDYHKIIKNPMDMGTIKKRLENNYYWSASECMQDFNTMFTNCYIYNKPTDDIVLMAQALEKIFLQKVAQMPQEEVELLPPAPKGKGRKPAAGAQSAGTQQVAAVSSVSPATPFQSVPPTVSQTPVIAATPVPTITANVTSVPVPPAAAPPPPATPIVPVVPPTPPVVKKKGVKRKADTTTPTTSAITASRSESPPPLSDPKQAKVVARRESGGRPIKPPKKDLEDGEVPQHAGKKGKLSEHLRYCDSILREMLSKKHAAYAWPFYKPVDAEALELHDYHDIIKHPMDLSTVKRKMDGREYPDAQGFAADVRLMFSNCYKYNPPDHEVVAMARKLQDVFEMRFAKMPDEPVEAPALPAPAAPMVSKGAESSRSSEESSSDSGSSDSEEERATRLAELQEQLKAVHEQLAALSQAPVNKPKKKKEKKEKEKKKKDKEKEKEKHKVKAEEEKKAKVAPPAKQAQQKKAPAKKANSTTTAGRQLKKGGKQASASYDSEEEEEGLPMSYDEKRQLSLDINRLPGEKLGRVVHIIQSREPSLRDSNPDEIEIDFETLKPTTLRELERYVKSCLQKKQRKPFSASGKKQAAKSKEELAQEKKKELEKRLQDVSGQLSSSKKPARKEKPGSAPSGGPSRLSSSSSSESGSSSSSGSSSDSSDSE
Endpoint: pIC50
pIC50 here: minus log base 10 of the concentration, concentration in moles per litre.

State its pIC50 on BRD3 (Homo sapiens): Cc1cnc(Nc2ccc(N3CCN(C)CC3)cc2)nc1Nc1ccc(Cl)c(NS(=O)(=O)C(C)(C)C)c1 [drawing 109]
7.78

---

- Measured on: BRD4 (Homo sapiens, UniProt O60885)
- Test summary: Differential Scanning Fluorimetry (DSF), stability of BRD4 upon ligand binding
- Stated conditions: 100 μM protein, 4 μM compound and 2% DMSO
Could you please report measured ΔTm at 4 µM for the items listed next?
Report as a plain number; the unit °C is understood.

State the recorded ΔTm at 4 µM for this entry: `Cc1cnc(Nc2ccc(C(=O)NC3CCN(C)CC3)cc2)nc1Nc1ccc(Cl)c(NS(=O)(=O)C(C)(C)C)c1`
11

Then `Cc1nc(Nc2ccc(N3CCN(C)CC3)cc2)nc(Nc2cccc(S(=O)(=O)NC(C)(C)C)c2)c1C` ?
5.3

Do the same for `COc1cc(Nc2nc(Nc3ccc(N4CCNCC4)cc3)ncc2Br)ccc1Cl` please
4.5

Ok, now `Cc1cnc(Nc2ccc(N3CCN(C)CC3)cc2)nc1Nc1cccc(NC(=O)C2CC2)c1`
4.6

How about this molecule: `CC(C)NS(=O)(=O)c1cccc(Nc2nc(Nc3ccc(N4CCN(C)CC4)cc3)ncc2Cl)c1`
4.6

Another molecule to check: `Cc1cnc(Nc2ccc(N3CCN(C)CC3)cc2)nc1Nc1ccc2c(c1)OCCO2`
4.4

Please answer likewise for `CCOc1cc(Nc2nc(Nc3ccc(N4CCN(C)CC4)cc3)ncc2Cl)ccc1Cl`
3.7

How about this molecule: `CN1CCN(c2ccc(Nc3nc4c(c(Nc5cccc(NS(=O)(=O)C6CC6)c5)n3)COC4)cc2)CC1`
1.3

Consider next the molecule `Cc1cnc(Nc2ccc(N3CCN(C)CC3)cc2)nc1Nc1cccc(S(=O)(=O)NC(C)C)c1` in the same way.
6

# repeat for `Cc1cnc(Nc2ccc(N3CCN(C)CC3)cc2)nc1Nc1cccc(NS(=O)(=O)C(C)C)c1`
7.5

And for `COc1cc(Nc2nc(Nc3ccc(N4CCN(C)CC4)cc3)ncc2Cl)cc(OC)c1OC` ?
5.2

Input `CN1CCN(c2ccc(Nc3ncc(CO)c(Nc4cccc(NS(=O)(=O)C(C)(C)C)c4)n3)cc2)CC1`
3.1

Then this molecule: `Cc1cnc(Nc2ccc(N3CCN(C)CC3)cc2)nc1Nc1cccc(NC(=O)C(C)C)c1`
4.1

What about this molecule? `CC(C)S(=O)(=O)Nc1cccc(Nc2nc(Nc3ccc(N4CCN(C)CC4)cc3)nc3c2CCC3)c1`
4.3

// repeat for `Cc1cnc(Nc2ccc(N3CCN(C)CC3)c(F)c2)nc1Nc1ccc2c(c1)N(S(=O)(=O)C(C)(C)C)CC2` and report
12.1

One more molecule: `CCCS(=O)(=O)Nc1cc(Nc2nc(Nc3ccc(N4CCN(C)CC4)cc3)ncc2C)ccc1Cl`
6.7

What do we get for `Cc1cnc(Nc2ccc(N3CCN(C)CC3)c(F)c2)nc1Nc1ccc(Cl)c(NS(=O)(=O)C(C)(C)C)c1` ?
11

And `CN1CCN(c2ccc(Nc3ncc(F)c(Nc4ccc(Cl)c(NS(=O)(=O)C(C)(C)C)c4)n3)cc2F)CC1` ?
0.57

---

- Measured on: JAK3 (Homo sapiens, UniProt P52333)
- Sequence (P52333 whole entry): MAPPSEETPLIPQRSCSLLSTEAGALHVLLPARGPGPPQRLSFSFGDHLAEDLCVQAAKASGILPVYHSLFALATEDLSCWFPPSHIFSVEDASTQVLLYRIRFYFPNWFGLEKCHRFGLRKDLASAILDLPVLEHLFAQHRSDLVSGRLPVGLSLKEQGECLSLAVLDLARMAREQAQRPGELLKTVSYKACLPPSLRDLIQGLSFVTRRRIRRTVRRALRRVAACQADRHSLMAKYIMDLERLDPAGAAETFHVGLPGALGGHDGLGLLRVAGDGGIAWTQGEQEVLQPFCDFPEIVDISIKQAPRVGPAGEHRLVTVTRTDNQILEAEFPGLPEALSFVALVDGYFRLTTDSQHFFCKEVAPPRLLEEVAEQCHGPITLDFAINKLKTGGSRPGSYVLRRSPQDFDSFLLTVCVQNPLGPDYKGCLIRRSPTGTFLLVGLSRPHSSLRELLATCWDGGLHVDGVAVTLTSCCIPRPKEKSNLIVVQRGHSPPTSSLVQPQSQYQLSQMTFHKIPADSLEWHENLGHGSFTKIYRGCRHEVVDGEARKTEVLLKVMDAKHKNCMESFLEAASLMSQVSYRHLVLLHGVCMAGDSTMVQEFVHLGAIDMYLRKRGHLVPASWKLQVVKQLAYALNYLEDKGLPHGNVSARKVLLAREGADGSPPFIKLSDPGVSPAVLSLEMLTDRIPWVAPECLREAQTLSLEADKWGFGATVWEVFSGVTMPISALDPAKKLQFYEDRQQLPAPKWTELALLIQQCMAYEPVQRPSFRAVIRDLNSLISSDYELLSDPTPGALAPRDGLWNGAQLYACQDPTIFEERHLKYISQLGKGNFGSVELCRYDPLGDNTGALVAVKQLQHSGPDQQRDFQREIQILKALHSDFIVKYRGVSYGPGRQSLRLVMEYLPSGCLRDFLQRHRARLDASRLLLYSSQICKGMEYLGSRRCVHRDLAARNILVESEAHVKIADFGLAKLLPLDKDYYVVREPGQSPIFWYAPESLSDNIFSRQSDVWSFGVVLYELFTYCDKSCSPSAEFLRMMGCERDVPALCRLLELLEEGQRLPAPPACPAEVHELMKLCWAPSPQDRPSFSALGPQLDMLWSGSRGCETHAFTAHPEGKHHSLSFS
Endpoint: IC50
Provide the measurement as a number trailed by its unit.

Find the recorded IC50 belonging to `Cc1cnc(Nc2ccc(N3CCN(C)CC3)cc2)nc1Nc1cccc(NS(=O)(=O)C(C)(C)C)c1` and report it.
91.4 nM

---

- Measured on: BRD4 (Homo sapiens)
- Test summary: Differential Scanning Fluorimetry (DSF), stability of BRD4 upon ligand binding
- Stated conditions: 100 μM protein, 4 μM compound and 2% DMSO
Endpoint: ΔTm at 4 µM
State the result as a value with its unit after it.

I'd like to know its ΔTm at 4 µM. The molecule in question is `CN1CCN(c2ccc(Nc3ncc(C(N)=O)c(Nc4cccc(NS(=O)(=O)C5CC5)c4)n3)cc2)CC1`
2.3 °C

Now try `CN1CCN(c2ccc(Nc3nc(Nc4cccc(NS(=O)(=O)C5CC5)c4)c4ccccc4n3)cc2)CC1` .
5.8 °C

Also need `Cc1cnc(Nc2cc(F)c(N3CCN(C)CC3)c(F)c2)nc1Nc1ccc(Cl)c(NS(=O)(=O)C(C)(C)C)c1` , thanks.
13.8 °C

Then what about the molecule `CC(C)NS(=O)(=O)c1cccc(Nc2nc(Nc3ccc(N4CCNCC4)cc3)ncc2Br)c1` ?
5 °C

Try this molecule next: `Cc1cnc(Nc2ccc(N3CCN(C)CC3)cc2)nc1Nc1ccc(Cl)c(NS(=O)(=O)C2CC2)c1`
7 °C

Field entry: `COc1cc(Nc2nc(Nc3ccc(N4CCN(C)CC4)cc3)ncc2C)cc(OC)c1Cl`
7.6 °C

Also `CN1CCN(c2ccc(Nc3ncc(Cl)c(Nc4cccc(NS(=O)(=O)C5CC5)c4)n3)cc2)CC1` ?
6.9 °C

Ok, now `CC(C)NS(=O)(=O)c1cccc(Nc2nc(N3CCN(c4ccc(N)cc4)CC3)ncc2Br)c1`
0.16 °C

And for `COc1cc(Nc2cc(C)nc(Nc3ccc(N4CCN(C)CC4)cc3)n2)ccc1Cl` ?
2.6 °C

---

- Measured on: BRD4 (Homo sapiens, UniProt O60885)
- Test summary: Differential Scanning Fluorimetry (DSF), stability of BRD4 upon ligand binding
- Stated conditions: estimated
Endpoint: IC50 (nM)
I only need the number, in nM, no unit after it.

Consider the molecule `Cc1cnc(Nc2ccc(N3CCN(C)CC3)c(F)c2)nc1Nc1ccc2c(c1)N(S(=O)(=O)C(C)(C)C)CCC2` and give its measured IC50.
27.7

Entry to check: `CN1CCN(c2ccc(Nc3ncc(Cl)c(Nc4cccc(S(=O)(=O)NC(C)(C)C)c4)n3)cc2)CC1`
270

Now give it for `Cc1ccc(Nc2nc(Nc3ccc(C4CCN(C)CC4)cc3)ncc2C)cc1S(=O)(=O)NC1CCC1` too.
58

`Cc1cnc(Nc2ccc(N3CCN(C)CC3)cc2)nc1Nc1cccc(NS(=O)(=O)N(C)C)c1` , same question.
1800

Now consider `Cc1cc(Nc2ncc(C)c(Nc3ccc(Cl)c(NS(=O)(=O)C(C)(C)C)c3)n2)ccc1N1CCN(C)CC1` .
29.5

Moving on to the next molecule: `Cc1cnc(Nc2ccc(N3CCN(C)CC3)cc2)nc1Nc1cccc(NS(C)(=O)=O)c1`
630

Param item: `CN1CCN(c2ccc(Nc3nc4c(c(Nc5ccc(Cl)c(NS(=O)(=O)C6CC6)c5)n3)CCC4)cc2)CC1`
620

Entry `CC(C)(C)NS(=O)(=O)c1cccc(Nc2nc(Nc3ccc(N4CCNCC4)cc3)ncc2C(F)(F)F)c1` please
2330

---

- System: UKE-1
- Test summary: UKE-1 cell IC50
- Assay type: cell-based
- Stated conditions: UKE1
Endpoint: IC50 (µM)
State the answer as a number, implicitly in µM.

For the compound Cc1cnc(Nc2ccc(N3CCN(C)CC3)cc2)nc1Nc1ccc(Cl)c(NS(=O)(=O)C(C)(C)C)c1 [drawing 109] , what IC50 is on record?
0.512

Entry to check: `Cc1cnc(Nc2ccc(N3CCN(C)CC3)c(F)c2)nc1Nc1ccc(Cl)c(NS(=O)(=O)C(C)(C)C)c1`
0.294

Query `Cc1cnc(Nc2ccc(C3CCN(C)CC3)cc2)nc1Nc1ccc(Cl)c(NS(=O)(=O)C(C)(C)C)c1` next
0.47

Would you mind doing `Cc1cnc(Nc2ccc(C(=O)NC3CCN(C)CC3)c(F)c2)nc1Nc1ccc(Cl)c(NS(=O)(=O)C(C)(C)C)c1` as well?
0.22

For `Cc1cnc(Nc2ccc(N3CCN(C)CC3)cc2)nc1Nc1cccc(NS(=O)(=O)C(C)(C)C)c1` then?
0.26

Please answer likewise for `Cc1cnc(Nc2ccc(N3CCN(C)CC3)c(F)c2)nc1Nc1cccc(NS(=O)(=O)C(C)(C)C)c1`
0.2

Field entry: `Cc1cnc(Nc2ccc(C(=O)NC3CCN(C)CC3)cc2)nc1Nc1ccc(Cl)c(NS(=O)(=O)C(C)(C)C)c1`
1.6

FYI, the data here is from patent US10526291B2.
